run-description: Selectivity index, ratio of CC50 for human Huh7.5 cells to IC50 for HCV expressing pFL-J6/JFH/JC1
Format: functional, Huh-7
# cutoff 20 applies to Ratio CC50/IC50; >= gives 1, < gives -1

Recorded results for 5 compounds are shown here.
Assess whether reported Ratio CC50/IC50 for COc1ccccc1/C=C/CNc1ccc(-c2cnco2)c(OC)c1 sits at 20 or higher.
-1

API: above_or_equal(metric=Ratio CC50/IC50, cutoff=20) for item COc1ccc(CNc2ccc(-c3cnco3)c(OC)c2)cn1
-1

Does the reported Ratio CC50/IC50 for COc1ccc(CNc2ccc(-c3cnco3)c(OC)c2)cc1 fall at or above the 20 mark?
1

Determine whether measured Ratio CC50/IC50 meets or exceeds 20 for COc1cc(NCc2ccc(C)o2)ccc1-c1cnco1
1

Could you please find out whether COc1cc(NCc2csc3ccccc23)ccc1-c1cnco1 has Ratio CC50/IC50 that meets 20 or exceeds it?
-1

Next:
Identify whether the reported Ratio CC50/IC50 of the following compound is 20 or greater: COc1cc(NCc2ccsc2)ccc1-c1cnco1
1

Please indicate if the recorded Ratio CC50/IC50 for COc1cc(NCc2ccco2)ccc1-c1cnco1 meets or exceeds 20.
1

Reported Ratio CC50/IC50 at or above 20? COc1cc(NC/C=C/c2ccccc2)ccc1-c1cnco1
1

Threshold query (Ratio CC50/IC50 >= 20) on COc1cc(NCc2ccc(OC)c(OC)c2OC)ccc1-c1cnco1
1

// inclusive: Ratio CC50/IC50 at least 20? input: COc1cc(NCc2ccncc2)ccc1-c1cnco1
-1

Test whether the compound COc1c(C)c2c(c(O)c1C/C=C(\C)CCC(=O)O)C(=O)OC2 records Ratio CC50/IC50 of 20 or higher.
1

Is the recorded value of Ratio CC50/IC50 equal to or greater than 20 for this compound? COc1cc(/N=C/c2ccncc2)ccc1-c1cnco1
1
